# MIC values compiled below
Test system: S. aureus (MRSA)
protocol_notes: MIC, clinical and laboratory strains
Format: cell-based
conditions_used: S. aureus (MRSA) 2171
Experimental: The medium employed for the assay was Mueller Hinton II Broth (MHB II; Becton-Dickinson, Sparks, MD, USA). Agar plates used for the organisms were trypticase soy agar plus 5% sheep blood (BD; Sparks, MD, USA). MIC assay plates were prepared using the CLSI broth microdilution procedure. […] The microplates were viewed from the bottom using a plate viewer and the MIC was read. The MIC was recorded as the lowest concentration of drug that inhibited visible growth of the organism.
quantity: MIC (µg/mL)

CC(C)c1cc(Cl)ccc1-c1cc(-c2nnn[nH]2)c(-c2ccc(Cl)cc2C(C)C)s1 [DNM0547]; 1
C/C(=C\C(=O)OCCCCCCCCC(=O)O)C[C@@H]1OC[C@H](C[C@@H]2O[C@H]2[C@@H](C)[C@H](C)O)[C@@H](O)[C@H]1O [mupirocin]; 0.25
CN[C@H](CC(C)C)C(=O)N[C@H]1C(=O)N[C@@H](CC(N)=O)C(=O)N[C@H]2C(=O)N[C@H]3C(=O)N[C@H](C(=O)N[C@H](C(=O)O)c4cc(O)cc(O)c4-c4cc3ccc4O)[C@H](O)c3ccc(c(Cl)c3)Oc3cc2cc(c3O[C@@H]2O[C@H](CO)[C@@H](O)[C@H](O)[C@H]2O[C@H]2C[C@](C)(N)[C@H](O)[C@H](C)O2)Oc2ccc(cc2Cl)[C@H]1O [vancomycin]; 0.5

Source listed as paper PMC11436758.
